Quick reference for viability at 28.5 h, 10 µM among some compounds
test: in vitro; conditions: human, hela cells, % viability
experimentalEndpoint: viability at 28.5 h, 10 µM

INSERT INTO results (compound, experimentalendpoint, reportedmeasurement) VALUES
  ('O=C(NCC(c1ccccc1)c1c[nH]c2ccccc12)Nc1ccc(Cl)cc1 (stereo not drawn) [CBK269147]', 'viability at 28.5 h, 10 µM', '91.9%'),
  ('O=C(O)c1cc(NC(=O)c2ccco2)cc(C(=O)O)c1 [CBK263360]', 'viability at 28.5 h, 10 µM', '102%'),
  ('Cc1ccc(C)c(CC(=O)N(CCC(=O)O)C2CCOCC2)c1 [CBK305469]', 'viability at 28.5 h, 10 µM', '92.3%'),
  ('CS(=O)(=O)Nc1cccc(-c2nnn[nH]2)c1 [CBK062150]', 'viability at 28.5 h, 10 µM', '90.4%'),
  ('O=C(Nc1ccc2c(c1)CS(=O)(=O)C2)c1cccs1 [CBK057563]', 'viability at 28.5 h, 10 µM', '113%'),
  ('CCOc1ccc(-c2csc(NC(=O)c3cccnc3)n2)cc1 [CBK094747]', 'viability at 28.5 h, 10 µM', '89.2%'),
  ('CC(=O)Nc1ccc(C(=O)N/C(=C/c2ccccc2)C(=O)O)cc1 [CBK265353]', 'viability at 28.5 h, 10 µM', '87.6%'),
  ('COCCc1noc(CC2CCN(c3ccc(Cl)c(C#N)n3)CC2)n1 [CBK304177]', 'viability at 28.5 h, 10 µM', '97.5%'),
  ('Cc1ccc(-c2nnc([C@H]3CCN(Cc4ccc(CO)o4)C3)o2)cc1 [CBK289399]', 'viability at 28.5 h, 10 µM', '90%'),
  ('Cc1ccc(S(=O)(=O)NC(=O)N2CCCC2)cc1 [CBK001984]', 'viability at 28.5 h, 10 µM', '87.3%'),
  ('CC(C)(C)c1csc(NCc2c(O)ccc3ccccc23)n1 [CBK078381]', 'viability at 28.5 h, 10 µM', '92.9%'),
  ('Cc1nn(C)cc1CN(C)CC(=O)Nc1nc2c(s1)CC(C)CC2 (stereo not drawn) [CBK306669]', 'viability at 28.5 h, 10 µM', '90.6%'),
  ('COC(=O)C(C)(C)NC(=O)c1ccn(-c2cc(C)ccc2OC)n1 [CBK305989]', 'viability at 28.5 h, 10 µM', '107%'),
  ('CC1CCN(C(=O)CN2C(=O)N3CCN=C3c3ccccc32)CC1 [CBK283946]', 'viability at 28.5 h, 10 µM', '93.6%'),
  ('Cc1nc2c(c(=O)[nH]1)CN(Cc1c[nH]c3ccccc13)CC2 [CBK282327]', 'viability at 28.5 h, 10 µM', '102%'),
  ('O=C(c1ccc(Br)o1)N1CCc2ccc(S(=O)(=O)N3CCOCC3)cc21 [CBK028953]', 'viability at 28.5 h, 10 µM', '100%'),
  ('O=C(Nc1ccc(N2CCNCC2)nc1)c1ccccc1 [CBK028277T]', 'viability at 28.5 h, 10 µM', '114%'),
  ('CCOc1cc(/C=C2\SC(=S)N(NC(=O)c3cccnc3)C2=O)ccc1O [CBK262759]', 'viability at 28.5 h, 10 µM', '105%'),
  ('O=C(CSCc1ccc([N+](=O)[O-])cc1)Nc1c[nH]c(=O)[nH]c1=O [CBK268549]', 'viability at 28.5 h, 10 µM', '98.5%'),
  ('CCc1c(S(=O)(=O)CCC(=O)OC)c2ccccc2[n+]([O-])c1C [CBK155469T]', 'viability at 28.5 h, 10 µM', '91.4%'),
  ('CN(Cc1cnn(C)c1)C(=O)c1ccc(Cl)cc1Br [CBK305404]', 'viability at 28.5 h, 10 µM', '93%'),
  ('CCCc1cc(C(=O)NC2(CN3CCCC3)CCCCC2)[nH]n1 [CBK282464]', 'viability at 28.5 h, 10 µM', '98.1%'),
  ('O=C(NC1CCCCCC1)c1ccc(COCC(F)(F)C(F)F)cc1 [CBK059012]', 'viability at 28.5 h, 10 µM', '114%'),
  ('O=C(O)C1CCCCN1S(=O)(=O)c1ccc(Br)cc1 (stereo not drawn) [CBK101789]', 'viability at 28.5 h, 10 µM', '88.6%'),
  ('COc1ncc(-c2nccnc2NCc2cccc(OC)c2OC)c(OC)n1 [CBK037506]', 'viability at 28.5 h, 10 µM', '76.9%'),
  ('O=C(NCCSCc1ccco1)Nc1ccc(Cl)cc1 [CBK267869]', 'viability at 28.5 h, 10 µM', '97.3%'),
  ('O=C(NCc1ccco1)c1cnoc1-c1ccc(F)cc1 [CBK154960]', 'viability at 28.5 h, 10 µM', '116%'),
  ('CN1CCN([C@H]2[C@@H]3OC[C@@H](O3)[C@@H](NCc3ccc(CO)o3)[C@@H]2O)CC1 [CBK288823]', 'viability at 28.5 h, 10 µM', '91.5%'),
  ('COC(C)(C)C(=O)N1CCCC(c2ccc(Cc3ccc(Cl)cc3)cn2)C1 (stereo not drawn) [CBK285846]', 'viability at 28.5 h, 10 µM', '98.6%'),
  ('COc1ccc(Cl)cc1Nc1ncnc(N)n1 [CBK288195]', 'viability at 28.5 h, 10 µM', '100%'),
  ('Cn1c(=O)c2c(ncn2CC(=O)NCCOc2ccccc2)n(C)c1=O [CBK304654]', 'viability at 28.5 h, 10 µM', '95.5%'),
  ('CCOC(=O)C1(O)CCN(c2ccc(C#N)cc2F)CC1 [CBK304836]', 'viability at 28.5 h, 10 µM', '94%'),
  ('COC(=O)c1c(NC(=O)COc2ccc(Br)cc2)sc2c1CCC2 [CBK263369]', 'viability at 28.5 h, 10 µM', '89.9%'),
  ('CC(C)N1CCC[C@H]1c1nc(-c2ccc(N3CCN(C)CC3)nc2)no1 [CBK288881]', 'viability at 28.5 h, 10 µM', '83.6%'),
  ('O=C1CC(C(=O)Nc2ccc3c(c2)OCO3)n2c(nc3ccccc32)N1 (stereo not drawn) [CBK270177]', 'viability at 28.5 h, 10 µM', '93.6%'),
  ('O=C(NC(CN1CCOCC1)c1ccccc1)c1cnc(-c2ccc(Cl)cc2)c(-c2ccncc2)c1 (stereo not drawn) [CBK037604]', 'viability at 28.5 h, 10 µM', '100%'),
  ('Cc1cc(C(=O)N2CCC(F)CC2)n[nH]1 [CBK200277]', 'viability at 28.5 h, 10 µM', '109%'),
  ('Cc1ccc(OCC(=O)N2CCN(S(=O)(=O)c3ccc([N+](=O)[O-])cc3)CC2)cc1 [CBK264267]', 'viability at 28.5 h, 10 µM', '103%'),
  ('COc1ccccc1CN(Cc1cccnc1)C(=O)NC(C)C(C)C (stereo not drawn) [CBK307672]', 'viability at 28.5 h, 10 µM', '85.2%');

###

assay: in vitro; conditions: human, hela cells, % viability
experimentalEndpoint: viability at 28.5 h, 10 µM (%)

INSERT INTO results (molecule, experimentalendpoint, measureunit, reportedmeasurement) VALUES
  ('Cc1cnn(CC(=O)N2CC[C@H]3NC(=O)c4ccccc4OCCCCC[C@H]3C2)c1', 'viability at 28.5 h, 10 µM', '%', 107),
  ('CCCc1nc2oc3c(-c4ccccc4)c(C(=O)O)c(C)nc3c2c2c1COC(C)(C)C2', 'viability at 28.5 h, 10 µM', '%', 89.2),
  ('O=C(O)C1CCN(c2cncc(-c3ccc(F)cc3F)n2)CC1', 'viability at 28.5 h, 10 µM', '%', 95.2),
  ('CC(c1ccccc1)c1nc2cnccn2c1NC(C)(C)C (centres unmarked)', 'viability at 28.5 h, 10 µM', '%', 92.3),
  ('O=C(Nc1ccc2[nH]ccc2c1)c1c(F)cccc1F', 'viability at 28.5 h, 10 µM', '%', 95.9),
  ('COc1ccc2c3c1CCC(C)(C)C3COC2CCN1CCN(c2ccc(F)cc2)CC1 (centres unmarked) [CBK024047C]', 'viability at 28.5 h, 10 µM', '%', 86.7),
  ('COc1nccnc1N1CCN(Cc2ccc([N+](=O)[O-])cc2)CC1', 'viability at 28.5 h, 10 µM', '%', 103),
  ('COc1ccc(NC(=O)CC(C(=O)O)N2CCOCC2)cc1 (centres unmarked)', 'viability at 28.5 h, 10 µM', '%', 101),
  ('Cc1c(C(=O)NC(C)c2cc3ccccc3o2)cnn1C (centres unmarked)', 'viability at 28.5 h, 10 µM', '%', 99.3),
  ('CNC(=O)CCc1ccccc1NC(=O)NCc1cnc(SC)n1C', 'viability at 28.5 h, 10 µM', '%', 101),
  ('CC(Oc1cccc(C#N)c1)C(=O)N1CCSCC1 (centres unmarked)', 'viability at 28.5 h, 10 µM', '%', 97),
  ('O=C(CSc1ccccn1)Nc1ccccc1-c1ccccc1', 'viability at 28.5 h, 10 µM', '%', 90.6),
  ('CCOc1ccc(/C=C2/NC(=O)NC2=O)cc1Br', 'viability at 28.5 h, 10 µM', '%', 91.6),
  ('COc1cc(C(C)=O)ccc1OCCCN1CCC(O)(C(=O)c2cccc(C(F)(F)F)c2)CC1 [CBK024866C]', 'viability at 28.5 h, 10 µM', '%', 103),
  ('CCc1cc2c(NC(C(=O)O)C(C)C)ncnc2s1 (centres unmarked)', 'viability at 28.5 h, 10 µM', '%', 97.7),
  ('CCc1cc(S(=O)(=O)NC2CC(C)(C)NC(C)(C)C2)ccc1OC', 'viability at 28.5 h, 10 µM', '%', 92),
  ('COc1ccc(CN2CCC(N3CCN(c4ccccc4F)CC3)CC2)cc1OCc1ccccc1 [CBK264720G]', 'viability at 28.5 h, 10 µM', '%', 105),
  ('COc1ccc(/C=C(\C)C(=O)Nc2cccc(N3CCNCC3)c2)cc1OC [CBK034115T]', 'viability at 28.5 h, 10 µM', '%', 90.1),
  ('O=C(O)CCC(NC(=O)c1ccc(Cl)cc1)C(=O)O (centres unmarked)', 'viability at 28.5 h, 10 µM', '%', 94.2),
  ('c1ccc2c(c1)CCCN2c1ncnc2n[nH]cc12', 'viability at 28.5 h, 10 µM', '%', 69.3);
